Sequence of the target: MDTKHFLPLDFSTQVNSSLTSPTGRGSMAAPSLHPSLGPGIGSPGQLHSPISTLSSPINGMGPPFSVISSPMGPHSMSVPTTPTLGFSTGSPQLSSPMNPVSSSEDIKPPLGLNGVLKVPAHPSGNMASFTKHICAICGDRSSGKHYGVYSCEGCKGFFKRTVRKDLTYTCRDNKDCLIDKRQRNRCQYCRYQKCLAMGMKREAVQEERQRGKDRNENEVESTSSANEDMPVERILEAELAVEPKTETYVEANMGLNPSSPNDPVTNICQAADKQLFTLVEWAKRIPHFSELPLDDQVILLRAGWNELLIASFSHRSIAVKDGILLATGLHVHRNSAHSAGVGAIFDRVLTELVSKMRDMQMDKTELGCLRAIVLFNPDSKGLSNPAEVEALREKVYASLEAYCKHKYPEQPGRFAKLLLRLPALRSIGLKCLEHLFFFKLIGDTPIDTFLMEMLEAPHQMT
Metric: pKd
Give bare numbers, as −log10 of the molar value.

Which pKd is reported for this compound? O=C(O)c1ccc(COc2ccccc2-c2ccccc2)cc1
7.02

====

Can you tell me log10 of EC50 for the items I'm about to list?
# Target Entity: Retinoic acid receptor RXR-alpha (Homo sapiens, UniProt P19793)
# Method: Agonist activity at human Gal4-DBD fused RXRalpha LBD expressed in HEK293T cells after 12 to 14 hrs by luciferase reporter gene assay
# Assay type: cell-based
# Experimental Setup: read-out: EC50
Values below are the log10 of the recorded EC50, with µM as the unit.

Compound	Value Observed
CC(C)c1ccc(OCc2ccc(C(=O)O)cc2)cc1	1.20
O=C(O)c1ccc(COc2ccccc2Cl)cc1	1.00
O=C(O)c1ccc(COc2ccc(Br)cc2)cc1	1.60

Hi team, please reply with log10 of EC50 for each item in this list.
1. O=C(O)c1ccc(COc2ccccc2C(F)(F)F)cc1
2. CN(Cc1ccc(C(=O)O)cc1)c1ccc2c(c1)CCC2
3. O=C(O)c1ccc(COc2ccc3c(c2)CCC3)cc1
4. CCc1ccc(OCc2ccc(C(=O)O)cc2)cc1

0.04
1.00
0.83
1.45

Hi team, please reply with log10 of EC50 for each item in this list.
1. O=C(O)Cc1ccc(COc2ccc3c(c2)CCC3)cc1
2. O=C(O)CCc1ccc(COc2ccc3c(c2)CCC3)cc1
3. O=C(O)c1ccc(COc2cccc(Cl)c2)cc1
4. COc1ccccc1OCc1ccc(C(=O)O)cc1
5. O=C(O)c1ccc(COc2ccc(I)cc2)cc1

1: 1.11; 2: 0.83; 3: 1.23; 4: 1.46; 5: 1.38

Hi team, please reply with log10 of EC50 for each item in this list.
1. CC(C)(C)c1ccc(OCc2ccc(C(=O)O)cc2)c(Cl)c1
2. O=C(O)c1ccc(OCc2cccc(Cl)c2)cc1
3. O=C(O)c1ccc(COc2ccccc2OC(F)(F)F)cc1
4. CC(C)(C)c1ccc(OCc2ccc(C(=O)O)cc2)cc1
5. O=C(O)c1ccc(COc2ccc(C(F)(F)F)cc2C(F)(F)F)cc1

1: 0.62; 2: 1.43; 3: 0.04; 4: 0.89; 5: 0.78

====

# Target Entity: Retinoic acid receptor RXR-gamma (Homo sapiens, UniProt P48443)
# Sequence (P48443 whole entry): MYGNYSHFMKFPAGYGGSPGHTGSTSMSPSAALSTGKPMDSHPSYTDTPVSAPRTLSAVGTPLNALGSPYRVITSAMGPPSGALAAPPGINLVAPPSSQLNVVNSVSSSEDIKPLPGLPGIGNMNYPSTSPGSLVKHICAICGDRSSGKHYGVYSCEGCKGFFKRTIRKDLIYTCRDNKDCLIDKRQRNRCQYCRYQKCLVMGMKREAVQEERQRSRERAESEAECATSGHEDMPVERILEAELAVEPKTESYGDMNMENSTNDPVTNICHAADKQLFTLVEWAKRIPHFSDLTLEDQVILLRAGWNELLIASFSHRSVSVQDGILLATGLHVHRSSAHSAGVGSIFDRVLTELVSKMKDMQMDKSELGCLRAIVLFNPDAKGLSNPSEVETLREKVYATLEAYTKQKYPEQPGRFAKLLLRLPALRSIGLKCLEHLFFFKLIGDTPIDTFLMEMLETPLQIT
# Method: Agonist activity at human Gal4-DBD fused RXRgamma LBD expressed in HEK293T cells after 12 to 14 hrs by luciferase reporter gene assay
# Type: cell-based
# Experimental Setup: read-out: EC50
Can you tell me pEC50 for the items I'm about to list?
Give bare numbers, as −log10 of the molar value.

Answered cases to consult:
Compound	Target Entity	pEC50
CC(C)(C)c1ccc(OCc2ccc(C(=O)O)cc2)c(Cl)c1	Retinoic acid receptor RXR-gamma (Homo sapiens, UniProt P48443)	5.40
O=C(O)c1ccc(COc2ccccc2C(F)(F)F)cc1	Retinoic acid receptor RXR-gamma (Homo sapiens, UniProt P48443)	5.00
O=C(O)c1ccc(COc2ccccc2-c2ccccc2)cc1	Retinoic acid receptor RXR-gamma (Homo sapiens, UniProt P48443)	5.80
O=C(O)c1ccc(OCc2cccc(Cl)c2)cc1	Retinoic acid receptor RXR-gamma (Homo sapiens, UniProt P48443)	4.54
O=C(O)c1ccc(COc2cccc(Cl)c2)cc1	Retinoic acid receptor RXR-gamma (Homo sapiens, UniProt P48443)	4.36
CN(Cc1ccc(C(=O)O)cc1)c1ccc2c(c1)CCC2	Retinoic acid receptor RXR-gamma (Homo sapiens, UniProt P48443)	4.52
O=C(O)c1ccc(COc2ccc(C(F)(F)F)cc2C(F)(F)F)cc1	Retinoic acid receptor RXR-gamma (Homo sapiens, UniProt P48443)	4.96
CC(C)(C)c1ccccc1OCc1ccc(C(=O)O)cc1	Retinoic acid receptor RXR-gamma (Homo sapiens, UniProt P48443)	5.96
Cc1ccccc1OCc1ccc(C(=O)O)cc1	Retinoic acid receptor RXR-gamma (Homo sapiens, UniProt P48443)	4.72
O=C(O)c1ccc(COc2ccccc2OC(F)(F)F)cc1	Retinoic acid receptor RXR-gamma (Homo sapiens, UniProt P48443)	5.38

Hi team, please reply with pEC50 for each item in this list.
1. O=C(O)CCc1ccc(COc2ccc3c(c2)CCC3)cc1
2. O=C(O)Cc1ccc(COc2ccc3c(c2)CCC3)cc1

1. 4.68
2. 4.66

Which pEC50 is reported for this compound? O=C(O)c1ccc(COc2ccc3c(c2)CCC3)cc1
4.77

====

# Target Entity: Retinoic acid receptor RXR-gamma (Homo sapiens) (UniProt P48443)
# Method: Agonist activity at human Gal4-DBD fused RXRgamma LBD expressed in HEK293T cells after 12 to 14 hrs by luciferase reporter gene assay relative to bexarotene
# Format: cell-based
Cut-off 10% on Emax: below means class 1, at or above means class 0.

For orientation, consider the following solved cases.
Compound	Target Entity	Group
O=C(O)c1ccc(COc2ccc3c(c2)CCC3)cc1	Retinoic acid receptor RXR-gamma (Homo sapiens) (UniProt P48443)	class 1
O=C(O)c1ccc(COc2ccc(C(F)(F)F)cc2C(F)(F)F)cc1	Retinoic acid receptor RXR-gamma (Homo sapiens) (UniProt P48443)	class 0
O=C(O)CCc1ccc(COc2ccc3c(c2)CCC3)cc1	Retinoic acid receptor RXR-gamma (Homo sapiens) (UniProt P48443)	class 0
CN(Cc1ccc(C(=O)O)cc1)c1ccc2c(c1)CCC2	Retinoic acid receptor RXR-gamma (Homo sapiens) (UniProt P48443)	class 1
O=C(O)c1ccc(OCc2cccc(Cl)c2)cc1	Retinoic acid receptor RXR-gamma (Homo sapiens) (UniProt P48443)	class 0

Lab note: next compound to report on.
Does this compound meet the criterion Emax < 10%? CC(C)(C)c1ccc(OCc2ccc(C(=O)O)cc2)c(Cl)c1
class 0

====

# Target Entity: Retinoic acid receptor RXR-beta (Homo sapiens, UniProt P28702)
# Sequence (P28702 whole entry, the tested form may be a part): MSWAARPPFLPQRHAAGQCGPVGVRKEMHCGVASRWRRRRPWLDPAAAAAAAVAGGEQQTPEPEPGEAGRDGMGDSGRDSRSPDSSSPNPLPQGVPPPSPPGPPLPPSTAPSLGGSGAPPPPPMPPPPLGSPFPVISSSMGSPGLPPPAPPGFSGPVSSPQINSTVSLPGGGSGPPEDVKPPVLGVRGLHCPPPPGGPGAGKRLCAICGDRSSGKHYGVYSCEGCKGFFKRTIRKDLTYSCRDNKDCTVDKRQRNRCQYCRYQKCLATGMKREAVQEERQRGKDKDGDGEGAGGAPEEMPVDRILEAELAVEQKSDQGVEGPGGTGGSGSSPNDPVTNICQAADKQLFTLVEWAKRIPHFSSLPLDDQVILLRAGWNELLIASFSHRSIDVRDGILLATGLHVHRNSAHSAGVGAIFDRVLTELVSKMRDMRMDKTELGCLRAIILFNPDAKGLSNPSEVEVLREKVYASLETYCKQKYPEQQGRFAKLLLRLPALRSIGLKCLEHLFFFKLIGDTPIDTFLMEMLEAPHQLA
# Method: Agonist activity at human Gal4-DBD fused RXRbeta LBD expressed in HEK293T cells after 12 to 14 hrs by luciferase reporter gene assay
# Assay type: cell-based
# Experimental Setup: read-out: EC50
Can you tell me pEC50 for the items I'm about to list?
Answers are plain numbers, as −log10 of the molar value.

Compound	pEC50
Cc1ccccc1OCc1ccc(C(=O)O)cc1	5.07

Hi team, please reply with pEC50 for each item in this list.
1. CCc1ccc(OCc2ccc(C(=O)O)cc2)cc1
2. O=C(O)c1ccc(COc2ccc(I)cc2)cc1

[4.46, 4.54]

====

# Target Entity: Retinoic acid receptor RXR-alpha (Homo sapiens) (UniProt P19793)
# Method: Agonist activity at human Gal4-DBD fused RXRalpha LBD expressed in HEK293T cells after 12 to 14 hrs by luciferase reporter gene assay relative to bexarotene
# Assay type: cell-based
Would you mind labelling by Emax? At or over 50% is label 1, under is label 0.

For orientation, consider the following solved cases.
Compound	Group
CN(Cc1ccc(C(=O)O)cc1)c1ccc2c(c1)CCC2	label 0
CC(C)(C)c1ccc(OCc2ccc(C(=O)O)cc2)cc1	label 0
O=C(O)c1ccc(COc2ccccc2Cl)cc1	label 1
O=C(O)c1ccc(COc2ccccc2C(F)(F)F)cc1	label 0
O=C(O)c1ccc(COc2cccc(Cl)c2)cc1	label 1

State whether the measured Emax reaches 50%, counting equality as reaching it, for O=C(O)c1ccc(COc2ccc(C(F)(F)F)cc2C(F)(F)F)cc1
label 1
